Target: T1, monomeric human sBCMA (Homo sapiens, UniProt Q02223)
T1 construct: is comprised of the entire extracellular domain of the molecule; purchased GenScript
T1 sequence (Q02223 1-54 limits assumed): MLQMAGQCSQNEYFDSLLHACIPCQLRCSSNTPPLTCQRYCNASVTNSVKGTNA
Test: Kinetics/affinity measurement by SPR (BioRad ProteOn XPR36), antibody captured by anti-Fc, sBCMA flowed over
Type: binding
Conditions: sBCMA 100-6.25 nM
measurement-kind: Kon
// no unit string in output, number only

I09: lead optimized clone of 15B2GL; VH SEQ ID NO: 11, VL SEQ ID NO: 12 (antibody, V domains shown) VH: EVQLVESGGGLVKPGGSLRLSCAASGFTFSSYSMNWVRQAPGKGLEWVSSISGSSNYIYYADSVKGRFTISRDNAKNSLYLQMNSLRAEDTAVYYCARGGNYFVEYFQQWGQGTLVTVSS VL: EIVLTQSPGTLSLSPGERATLSCRASQYISSNYLAWYQQKPGQAPRLLIYGASNRATGIPDRFSGSGSGTDFTLTISRLEPEDFAVYYCQQYSSDPITFGQGTKLEIK | 6.09E+05

Now for the molecule whose Kon we want.
Notebook: M02: lead optimized clone of 15B2GL; VH SEQ ID NO: 15, VL SEQ ID NO: 16 (antibody, V domains shown) VH: EVQLVESGGGLVKPGGSLRLSCAASGFTFSSYSMNWVRQAPGKGLEWVSSISGQSNYIYYADSVKGRFTISRDNAKNSLYLQMNSLRAEDTAVYYCARGGNYYVEYFQYWGQGTLVTVSS VL: EIVLTQSPGTLSLSPGERATLSCRASQYISSNNLAWYQQKPGQAPRLLIYGASNRATGIPDRFSGSGSGTDFTLTISRLEPEDFAVYYCQQYSSDPITFGQGTKLEIK , Kon read as 4.99E+05
